Assay: Cytotoxicity assay against lung cancer A549 cells, MTT
Settings: human, A549 lung cancer cells
viability at 24 h, 100 µg/mL values, listed per item
Readout: viability at 24 h, 100 µg/mL (%)

# Compound, Units text, Observed measurement
data = [
    ("CC[C@H](C)[C@@H](OC(C)=O)[C@@H](C)C1=CC(=O)C2=C(O[C@]3(C)CC[C@H]4O[C@@H](C(C)(C)O)CC[C@]4(C)[C@H]3[C@@H]2O)C1=O", "%", 13.4),
    ("CC[C@H](C)[C@@H](OC(C)=O)[C@@H](C)C1=C(N)C(=O)C2=C(O[C@]3(C)CC[C@H]4O[C@@H](C(C)(C)O)CC[C@]4(C)[C@H]3[C@@H]2O)C1=O", "%", 88.5),
    ("CC[C@H](C)[C@@H](OC(C)=O)[C@@H](C)C1=CC(=O)C2=C(O[C@]3(C)CC[C@H]4O[C@@H](C(C)(C)O)CC[C@]4(C)C3=C2)C1=O [Compound 4, anhydrocochlioquinone A]", "%", 8.4),
    ("C/C1=C\\C[C@]2(C)C(=O)C(O)=C([C@H](C)CO)[C@H]2C/C=C(\\C)[C@@H](O)CC/C(C)=C/CC1", "%", 92),
]
